target: MDM2 (UniProt Q00987 1-491); experiment: FP; reduced
Sequence (Q00987 whole entry): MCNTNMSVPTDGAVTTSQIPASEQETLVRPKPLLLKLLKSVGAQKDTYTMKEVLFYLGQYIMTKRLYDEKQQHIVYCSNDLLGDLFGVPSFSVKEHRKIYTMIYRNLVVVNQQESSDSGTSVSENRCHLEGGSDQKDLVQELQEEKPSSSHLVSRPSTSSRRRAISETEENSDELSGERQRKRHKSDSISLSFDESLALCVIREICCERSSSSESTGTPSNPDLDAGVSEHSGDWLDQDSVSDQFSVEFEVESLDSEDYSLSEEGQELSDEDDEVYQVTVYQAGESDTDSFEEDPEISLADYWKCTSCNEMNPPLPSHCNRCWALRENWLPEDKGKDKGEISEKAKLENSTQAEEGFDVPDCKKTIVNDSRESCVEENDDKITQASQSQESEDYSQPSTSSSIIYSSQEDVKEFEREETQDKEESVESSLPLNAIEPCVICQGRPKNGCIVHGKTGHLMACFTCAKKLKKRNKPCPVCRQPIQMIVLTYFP
MEASUREMENT_NAME: pKi
Keep it numeric: pKi is minus log10 of the concentration in mol/L.

input: Please look at this binder and report its pKi: GCEKATESESPCPCIFPELCPWIVCC (cysteines reduced (no disulfide bonds)) [reduced linear peptide 15]
output: 5.95
